Tested on: SK-MEL-5 melanoma
Assay: NCI-60 one-dose screen, 48 h
Details: 10 µM unless noted
Experimental: Growth inhibition of the SK-MEL-5 human tumor cell line is measured as a screen for anti-cancer activity. Cells are grown in 96 well plates and exposed to the test compound for 48 hours. Compounds are tested at a single concentration, which is 10^-5 M for most compounds. The reported endpoint is percent growth (GI% or GIPRCNT), where numbers from 0 - 100% represent growth inhibition, and numbers from -100% - 0 represent cell death. For example, a value of 40 represents 60% growth inhibition. […]
Compounds without any hit were thinned out: in the full panel of roughly 83,000, 20% have a hit. The source made the active and inactive calls. The calls were made as follows: active = growth percent below 10; inactive = the rest.
Bench note: report the call from active, inactive

input: // outcome(item) with item = COc1cc(OC)c(/C=C/S(=O)(=O)Cc2cnc(OC)c(N)c2)c(OC)c1
output: active

input: // outcome(item) with item = CC(=O)C1=C(O)C=C2Oc3c(C(=O)/C=C/c4cc(Cl)cc(Cl)c4)c(O)c(C)c(O)c3[C@]2(C)C1=O
output: active

input: // outcome(item) with item = O=C1NC(=O)C(CC(=O)n2c(-c3ccccc3)nc3ccccc32)C(=O)N1
output: inactive

input: // outcome(item) with item = O=C1O[C@H]([C@H](O)CO)C(O)=C1O
output: inactive

input: // outcome(item) with item = CCN(C(=O)CN1CCN(c2cc3c(cc2F)c(=O)c(C(=O)O)cn3CC)CC1)c1nc(-c2ccccc2)cs1
output: active

input: // outcome(item) with item = O=C1C[C@H](N2C(=O)c3ccccc3S2(=O)=O)C2CO[C@@H]1O2
output: inactive

input: // outcome(item) with item = COc1cc(NCCCCN=C(N)N)c2ncccc2c1
output: inactive

input: // outcome(item) with item = CN(C)CCCC(=O)Nc1ccc(Cn2nnc3c2C(=O)c2nnn(Cc4ccc(NC(=O)CCCN(C)C)cc4)c2C3=O)cc1
output: inactive

input: // outcome(item) with item = COc1ccc(CN2C(=O)/C(=C\c3cc(OC)c(OC)c(OC)c3)c3cc(OC)ccc32)cc1
output: active
